Item-by-item account of MIC
System: Staphylococcus aureus X400
Measurement Description: MIC, standard agar-dilution assay
Format: cell-based
Test Settings: Staphylococcus aureus X400, Methicillin-resistant strain, inducibly-resistant to erythromycin; read-out: MIC

Molecule	Sign	MIC, µg/mL
CC[C@H]1OC(=O)[C@H](C)[C@@H](O[C@H]2C[C@@](C)(OC)[C@@H](O)[C@H](C)O2)[C@H](C)[C@@H](O[C@@H]2O[C@H](C)C[C@H](N(C)C)[C@H]2O)[C@](C)(O)C[C@@H](C)[C@H](N2CCCCC2)[C@H](C)[C@@H](O)[C@]1(C)O	>	128
CC[C@H]1OC(=O)[C@H](C)[C@@H](O[C@H]2C[C@@](C)(OC)[C@@H](O)[C@H](C)O2)[C@H](C)[C@@H](O[C@@H]2O[C@H](C)C[C@H](N(C)C)[C@H]2O)[C@](C)(O)C[C@@H](C)[C@H](N(C)C(C)C)[C@H](C)[C@@H](O)[C@]1(C)O	>	128
CCCCCCCCN[C@@H]1[C@H](C)[C@@H](O)[C@](C)(O)[C@@H](CC)OC(=O)[C@H](C)[C@@H](O[C@H]2C[C@@](C)(OC)[C@@H](O)[C@H](C)O2)[C@H](C)[C@@H](O[C@@H]2O[C@H](C)C[C@H](N(C)C)[C@H]2O)[C@](C)(O)C[C@H]1C	=	8
CC[C@H]1OC(=O)[C@H](C)[C@@H](O[C@H]2C[C@@](C)(OC)[C@@H](O)[C@H](C)O2)[C@H](C)[C@@H](O[C@@H]2O[C@H](C)C[C@H](N(C)C)[C@H]2O)[C@](C)(O)C[C@@H](C)[C@H](NCCC(C)CCCC(C)(C)OC)[C@H](C)[C@@H](O)[C@]1(C)O (stereo partly shown)	=	64
CC[C@H]1OC(=O)[C@H](C)[C@@H](O[C@H]2C[C@@](C)(OC)[C@@H](O)[C@H](C)O2)[C@H](C)[C@@H](O[C@@H]2O[C@H](C)C[C@H](N(C)C)[C@H]2O)[C@](C)(O)C[C@@H](C)[C@H](NCC#Cc2ccccc2)[C@H](C)[C@@H](O)[C@]1(C)O	=	32
CCCN1CO[C@@H]2[C@@H](C)[C@@H]1[C@H](C)C[C@@](C)(O)[C@H](O[C@@H]1O[C@H](C)C[C@H](N(C)C)[C@H]1O)[C@@H](C)[C@H](O[C@H]1C[C@@](C)(OC)[C@@H](O)[C@H](C)O1)[C@@H](C)C(=O)O[C@H](CC)[C@@]2(C)O	=	8
CCC(CC)CN[C@@H]1[C@H](C)[C@@H](O)[C@](C)(O)[C@@H](CC)OC(=O)[C@H](C)[C@@H](O[C@H]2C[C@@](C)(OC)[C@@H](O)[C@H](C)O2)[C@H](C)[C@@H](O[C@@H]2O[C@H](C)C[C@H](N(C)C)[C@H]2O)[C@](C)(O)C[C@H]1C	=	16

###

System: Staphylococcus aureus V41
Measurement Description: MIC, standard agar-dilution assay
Type: cell-based
Test Settings: Staphylococcus aureus V41, Penicillin-resistant strain, inducibly-resistant to erythromycin; read-out: MIC

Molecule	Unit	Sign	MIC
CC[C@H]1OC(=O)[C@H](C)[C@@H](O[C@H]2C[C@@](C)(OC)[C@@H](O)[C@H](C)O2)[C@H](C)[C@@H](O[C@@H]2O[C@H](C)C[C@H](N(C)C)[C@H]2O)[C@](C)(O)C[C@@H](C)[C@H](N2CCCCC2)[C@H](C)[C@@H](O)[C@]1(C)O [Compound 72, 9-Deoxo-9-(1-piperidinyl)erythromycin]	µg/mL	>	128
CC[C@H]1OC(=O)[C@H](C)[C@@H](O[C@H]2C[C@@](C)(OC)[C@@H](O)[C@H](C)O2)[C@H](C)[C@@H](O[C@@H]2O[C@H](C)C[C@H](N(C)C)[C@H]2O)[C@](C)(O)C[C@@H](C)[C@H](N(C)C(C)C)[C@H](C)[C@@H](O)[C@]1(C)O [Compound 70]	µg/mL	>	128
CC[C@H]1OC(=O)[C@H](C)[C@@H](O[C@H]2C[C@@](C)(OC)[C@@H](O)[C@H](C)O2)[C@H](C)[C@@H](O[C@@H]2O[C@H](C)C[C@H](N(C)C)[C@H]2O)[C@](C)(O)C[C@@H](C)[C@H](NC)[C@H](C)[C@@H](O)[C@]1(C)O [Compound 1, 9-Deoxo-9-(methylamino)erythromycin]	µg/mL	=	64
CCCCC/C=C/CCCN[C@@H]1[C@H](C)[C@@H](O)[C@](C)(O)[C@@H](CC)OC(=O)[C@H](C)[C@@H](O[C@H]2C[C@@](C)(OC)[C@@H](O)[C@H](C)O2)[C@H](C)[C@@H](O[C@@H]2O[C@H](C)C[C@H](N(C)C)[C@H]2O)[C@](C)(O)C[C@H]1C [Compound 14]	µg/mL	=	8
